Origin of values: patent US10246453B2

biological target: UniProt:P35498; experiment: Electrophysiological Assay (EP), patch voltage clamp, NaV1.1; type: cell-based; conditions: HEK-293 cells, whole-cell patch clamp, inactivated state; arithmetic mean
Items are presented alongside their recorded pIC50.
Keep it numeric: pIC50 is minus log10 of the concentration in mol/L.

>>> df
                                   compound  recorded_value
0  Cc1cccc(CN2CCC(Oc3ccc(S(=O)(=O)Nc4nccs4)cc3Cl)CC2)c1            5.12

Requested read-out pIC50, target or system UniProt:P35498, entry CN(c1ccc(S(=O)(=O)Nc2nccs2)cc1Cl)[C@H]1CCN(Cc2cccc(Cl)c2)C1 5.47

Now the same for Cc1c(N(C)[C@H]2CCN(Cc3ccccc3)C2)cc(F)c(S(=O)(=O)Nc2cscn2)c1F [Example 103, 2,2,2-trifluoroacetate] 4.39

Now the same for CN(c1ccc(S(=O)(=O)Nc2nccs2)cc1Cl)[C@H]1CCN(Cc2cccc(C(F)F)c2)C1 5.38

Now the same for O=S(=O)(Nc1nccs1)c1cc(Cl)c(N[C@@H]2CCN(Cc3ccccc3)C2)cc1F 5.54

Now the same for O=S(=O)(Nc1nccs1)c1ccc(OC2CCN(Cc3cccc(C(F)F)c3)CC2)c(Cl)c1 5.14
